# Assay System: Recombinant soluble trimeric human BAFF (furin-cleaved human BAFF 134-285) (human, UniProt Q9Y275 134-285)
# Experiment: cell-based or functional assay
Can you tell me Soluble trimeric huBAFF (50 pM) Neutralization IC50 for the items I'm about to list?
All answers are understood in pM, so give the number only.

Q: I would be grateful if you could share the reported Soluble trimeric huBAFF (50 pM) Neutralization IC50 for 443C11A12 (antibody, V domains shown) VH: EVQLQQSGPELVKPGASVKMSCTASGYTFTSYVIHWMKQKPGQGLEWIGYLHRNNDGTKYNEKFKVKATLTSDESSNTAYMELSSLTSEDSAVYYCARGDYSNYFYWYFDVWGAGTTVSVSS VL: DIKMTPSPSSMYASLGERVTITCKASQDINSYLSWFQQKPGKSPKTLIYRANRLVDGVPSRFSGSGSGQDYSLTISSLEYEDMGIYYCLQYDEFPYTSGGGTKLEIK .
Result: 33

Q: Further, for 450A2A7 (antibody, V domains shown) VH: QVQLQQSGPELVKPGASVKLSCKASGYTFTDYSIHWVKQSPGQGLEWIGWIYPGSDNTKYNDKFKGKASMTADKSSRTVYMHLSSLTSEESAVYFCARDYRRYYAMDYWGQGTSVTVSS VL: IVLTQSSASLAVSLGQRATISCRASESVDRYGNSLMHWYQQKPGQPPKLLIYIASNLESGVPARFSGSGSRTDFTLTIDPVEADDAATYYCQQNNEDPRTFGGGTKLEIK ?
Result: 36
